meta.source: the supplement of paper PMC13207355

Test system: E34 (patient-derived glioblastoma stem cells of proneural subtype)
Experiment: phenotypic distance (Euclidean, principal components) from DMSO controls (arbitrary units); higher = stronger morphological change;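 also: cell Painting imaging in 384-well plates, CellProfiler features reduced to at least 20 principal components, Euclidean distance versus same-plate DMSO vehicle wells (0.1% v/v), median over six images per well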
Particulars: 111.1 nM; exposure time: 72 h
Structures can show the parent of a compound that is named as a salt.
Property Measured: phenotypic distance

CN(C)C(=O)Oc1ccc[n+](C)c1 [Pyridostigmine iodide] ... 0.616
CC[C@@]1(O)C(=O)OCc2c1cc1n(c2=O)Cc2cc3c(CN(C)C)c(O)ccc3nc2-1 ... 2.09
CN[C@@H]1[C@@H](O)[C@@H](O[C@@H]2[C@@H](O)[C@H](O[C@H]3OC(CN)=CC[C@H]3N)[C@@H](N)C[C@H]2N)OC[C@]1(C)O [Sisomicin sulfate] ... 0.273
Cc1nc2ccccn2c(=O)c1CCN1CCC(C(=O)c2ccc(F)cc2)CC1 ... 0.579
Cc1[nH]nc(C(F)(F)F)c1Cc1sc2c(c1C(=O)N1C[C@](C)(O)CO1)c(=O)n(C)c(=O)n2C(C)C ... 1.57

====

System: E21 (patient-derived glioblastoma stem cells of mesenchymal subtype)
Experiment: phenotypic distance (Euclidean, principal components) from DMSO controls (arbitrary units); higher = stronger morphological change
Particulars: 12.3 nM; exposure time: 72 h
Where a name gives a salt, the structure may show the parent alone.
Classification scheme (phenotypic distance): bucket 1 = under 0.9, bucket 2 = from 0.9 up to 2, bucket 3 = 2 and over

S=c1[nH]cnc2nc[nH]c12 ... bucket 2
COc1cc([C@@H]2c3cc4c(cc3[C@H](O)[C@H]3COC(=O)[C@H]23)OCO4)cc(OC)c1OC ... bucket 3
COC(=O)C[C@](O)(CCCC(C)(C)O)C(=O)O[C@@H]1C(OC)=C[C@]23CCCN2CCc2cc4c(cc2[C@H]13)OCO4 ... bucket 2
COc1cccc2c1C(=O)c1c(O)c3c(c(O)c1C2=O)C[C@@](O)(C(=O)CO)C[C@@H]3O[C@H]1C[C@H](N)[C@H](O)[C@H](C)O1 [Doxorubicin hydrochloride] ... bucket 3
CC(C)NCC(O)c1cc(O)cc(O)c1 (stereo not drawn) [Metaproterenol sulfate, orciprenaline sulfate] ... bucket 1
Cn1ncnc1[C@H]1c2n[nH]c(=O)c3cc(F)cc(c23)N[C@@H]1c1ccc(F)cc1 ... bucket 2
CC(C)C[C@H](NC(=O)[C@H](Cc1ccccc1)C[C@@H](O)[C@H](Cc1ccccc1)NC(=O)OC(C)(C)C)C(=O)N[C@@H](Cc1ccccc1)C(N)=O ... bucket 1
CO[C@H]1C(=O)[C@]2(C)[C@@H](OC)C[C@H]3OC[C@@]3(OC(C)=O)[C@H]2[C@H](OC(=O)c2ccccc2)[C@]2(O)C[C@H](OC(=O)[C@H](O)[C@@H](NC(=O)OC(C)(C)C)c3ccccc3)C(C)=C1C2(C)C ... bucket 3
C=CC(=O)Nc1cccc(Oc2nc(Nc3ccc(N4CCN(C)CC4)cc3)nc3ccsc23)c1 ... bucket 1
COc1ccc([C@@H]2CC(=O)c3c(O)cc(O[C@@H]4O[C@H](CO[C@@H]5O[C@@H](C)[C@H](O)[C@@H](O)[C@H]5O)[C@@H](O)[C@H](O)[C@H]4O)cc3O2)cc1O ... bucket 2
NCc1ccccc1CC(=O)N[C@@H]1C(=O)N2C(C(=O)O)=C(CSc3nnnn3CC(=O)O)CS[C@H]12 [Ceforanide] ... bucket 1

====

System: FT3469 (normal neural stem cell line)
Experiment: phenotypic distance (Euclidean, principal components) from DMSO controls (arbitrary units); higher = stronger morphological change
Particulars: 111.1111111 nM; exposure time: 72 h
Structures can show the parent of a compound that is named as a salt.
Lab note: anything with phenotypic distance at or over 0.7 counts as True; the rest go in False.

CC(C)C[C@H](NC(=O)[C@H](Cc1ccccc1)C[C@@H](O)[C@H](Cc1ccccc1)NC(=O)OC(C)(C)C)C(=O)N[C@@H](Cc1ccccc1)C(N)=O ... True
CC(C)(C)CC(C)(C)c1ccc(OCCOCC[N+](C)(C)Cc2ccccc2)cc1 [Benzethonium chloride] ... True
COC(=O)[C@@H]1[C@H]2C[C@H]3c4[nH]c5ccccc5c4CCN3C[C@@H]2CC[C@@H]1O [Yohimbine hydrochloride] ... True
Cc1cc(C)c(CN2CCc3c(Cl)cc(-c4c(C)noc4C)c(Cl)c3C2=O)c(=O)[nH]1 ... False
CCN(CC)CCCC(C)Nc1c2ccc(Cl)cc2nc2ccc(OC)cc12 (stereo unspecified) [Quinacrine dihydrochloride hydrate] ... False
CC(C)C[C@H](NC(=O)[C@H](Cc1ccccc1)NC(=O)c1cnccn1)B(O)O ... True
